biological target: α3β2 nAChR (Rattus norvegicus, UniProt P04757+P12390); construct: expressed in transfected cells; experiment: Competition binding with [3H]epibatidine, membrane homogenates of stably transfected cells; settings: mean of three to five independent measurements; [3H]epibatidine; read-out: Ki α3β2
readoutKind: Ki

CCC(=O)[C@H]1C2CNCC(C2)c2cccc(=O)n21 (single isomer, unassigned; (-)) [(−)-23]    300 µM
COC(=O)[C@H]1C2CNCC(C2)c2cccc(=O)n21 (single isomer, unassigned; (-)) [(−)-22]    250 µM
O=c1c(-c2ccc(F)cc2)ccc2n1CC1CNCC2C1 (single isomer, unassigned; (-)) [(−)-21a]    12 µM
CCCCc1ccc(-c2ccc3n(c2=O)CC2CNCC3C2)cc1 (single isomer, unassigned; (-)) [(−)-21b]    36 µM

Requested field: Ki. Item: Cc1ccc(-c2ccc3n(c2=O)CC2CNCC3C2)s1 (single isomer, unassigned; (-)) [(−)-21c] 6 µM

---

biological target: α4β2 nAChR (Rattus norvegicus, UniProt P09483+P12390); construct: expressed in transfected cells; assay: Competition binding with [3H]epibatidine, membrane homogenates of stably transfected cells; conditions: primary screening; estimated from single concentration (10 μM) competition binding; read-out: Estimated Ki α4β2
readoutKind: potency estimated from few doses
Reply with the number, then its unit.

O=c1ccccn1CC1CCCNC1 (centres unmarked)    1.78 µM

Find the measured potency estimated from few doses: item O=c1ccccn1CC1CCN(Cc2ccccc2)CC1 , target or system α4β2 nAChR (Rattus norvegicus, UniProt P09483+P12390). 1.3 µM

Entry O=c1ccccn1CC1CCNCC1 please 1.6 µM

Entry O=c1ccccn1CC1CCCN(Cc2ccccc2)C1 (centres unmarked) please 0.54 µM

Entry CN1CCCC(Cn2ccccc2=O)C1 (centres unmarked) please 0.98 µM

---

target: α4β4 nAChR (Rattus norvegicus, UniProt P09483+P12392); construct: expressed in transfected cells; experiment: Competition binding with [3H]epibatidine, membrane homogenates of stably transfected cells; conditions: mean of three to five independent measurements; [3H]epibatidine; read-out: Ki α4β4
pKi: −log10 of the molar value.
Lab note: anything with pKi at or over 5 counts as Criterion met; the rest go in Criterion not met.

Tell me whether pKi is at least 5 here: COC(=O)[C@H]1C2CNCC(C2)c2cccc(=O)n21 (single isomer, unassigned; (-)) [(−)-22] Criterion not met

Entry CCC(=O)[C@H]1C2CNCC(C2)c2cccc(=O)n21 (single isomer, unassigned; (-)) [(−)-23] please Criterion not met

Entry Cc1ccc(-c2ccc3n(c2=O)CC2CNCC3C2)s1 (single isomer, unassigned; (-)) [(−)-21c] please Criterion met

Entry O=c1c(-c2ccc(F)cc2)ccc2n1CC1CNCC2C1 (single isomer, unassigned; (-)) [(−)-21a] please Criterion met

---

target: α2β4 nAChR (Rattus norvegicus, UniProt P12389+P12392); construct: expressed in transfected cells; assay: Competition binding with [3H]epibatidine, membrane homogenates of stably transfected cells; conditions: mean of three to five independent measurements; [3H]epibatidine; read-out: Ki α2β4
readoutKind: pKi
In textbook form, pKi equals minus log to base ten of the concentration in mol/L.

CCCCc1ccc(-c2ccc3n(c2=O)CC2CNCC3C2)cc1 (single isomer, unassigned; (-)) [(−)-21b]    4.55

Requested field: pKi. Item: O=c1c(-c2ccc(F)cc2)ccc2n1CC1CNCC2C1 (single isomer, unassigned; (-)) [(−)-21a] 5.09

Entry COC(=O)[C@H]1C2CNCC(C2)c2cccc(=O)n21 (single isomer, unassigned; (-)) [(−)-22] please 4.12

Entry CCC(=O)[C@H]1C2CNCC(C2)c2cccc(=O)n21 (single isomer, unassigned; (-)) [(−)-23] please 4.30

Entry Cc1ccc(-c2ccc3n(c2=O)CC2CNCC3C2)s1 (single isomer, unassigned; (-)) [(−)-21c] please 5.77

---

target: α3β4 nAChR (Rattus norvegicus, UniProt P04757+P12392); construct: expressed in transfected cells; experiment: Competition binding with [3H]epibatidine, membrane homogenates of stably transfected cells
readoutKind: Ki

O=c1cc(CO)cc2n1CC1CNCC2C1 (racemic) [rac-17a]    10 µM

# ---- query compound ----
Requested field: Ki. Item: Cc1cc2n(c(=O)c1)CC1CNCC2C1 (racemic) [rac-15] 6.7 µM

---

target: α3β4 nAChR (Rattus norvegicus, UniProt P04757+P12392); construct: expressed in transfected cells; experiment: Competition binding with [3H]epibatidine, membrane homogenates of stably transfected cells; conditions: primary screening; estimated from single concentration (10 μM) competition binding; read-out: Estimated Ki α3β4
The label is 1.0 for potency estimated from few doses below 500 µM and 0.0 for potency estimated from few doses equal to or exceeding 500 µM.

Previously resolved entries follow.
O=c1ccccn1CC1CCNCC1    0.0
O=c1ccccn1CC1CCCNC1 (centres unmarked)    0.0
O=c1ccccn1CC1CCCN(Cc2ccccc2)C1 (centres unmarked)    1.0
CN1CCCC(Cn2ccccc2=O)C1 (centres unmarked)    1.0

For the next question, use this compound.
Please let me know if O=c1ccccn1CC1CCN(Cc2ccccc2)CC1 shows potency estimated from few doses below 500 µM. 0.0

---

target: α3β2 nAChR (Rattus norvegicus, UniProt P04757+P12390); construct: expressed in transfected cells; test: Competition binding with [3H]epibatidine, membrane homogenates of stably transfected cells; conditions: primary screening; estimated from single concentration (10 μM) competition binding; read-out: Estimated Ki α3β2
readoutKind: potency estimated from few doses
Reply with the number, then its unit.

Solved cases (3 shown):
O=c1ccccn1CC1CCCNC1 (centres unmarked) [Compound 6a]    18.7 µM
CN1CCCC(Cn2ccccc2=O)C1 (centres unmarked) [Compound 6b]    6 µM
O=c1ccccn1CC1CCNCC1 [Compound 7a]    12 µM

Find the measured potency estimated from few doses: item O=c1ccccn1CC1CCN(Cc2ccccc2)CC1 [Compound 7b] , target or system α3β2 nAChR (Rattus norvegicus, UniProt P04757+P12390). 7.3 µM

Entry O=c1ccccn1CC1CCCN(Cc2ccccc2)C1 (centres unmarked) [Compound 6c] please 4.3 µM

---

biological target: α4β2 nAChR (Rattus norvegicus, UniProt P09483+P12390); construct: expressed in transfected cells; assay: Competition binding with [3H]epibatidine, membrane homogenates of stably transfected cells; conditions: mean of three to five independent measurements; [3H]epibatidine; read-out: Ki α4β2
Consider the following molecules and their measured pKi readings.
In textbook form, pKi equals minus log to base ten of the concentration in mol/L.

Cc1ccc(-c2ccc3n(c2=O)CC2CNCC3C2)s1 (single isomer, unassigned; (-)) [(−)-21c]    6.41

Requested field: pKi. Item: CCC(=O)[C@H]1C2CNCC(C2)c2cccc(=O)n21 (single isomer, unassigned; (-)) [(−)-23] 4.80

Entry O=c1c(-c2ccc(F)cc2)ccc2n1CC1CNCC2C1 (single isomer, unassigned; (-)) [(−)-21a] please 6.38

Entry COC(=O)[C@H]1C2CNCC(C2)c2cccc(=O)n21 (single isomer, unassigned; (-)) [(−)-22] please 4.62

Entry CCCCc1ccc(-c2ccc3n(c2=O)CC2CNCC3C2)cc1 (single isomer, unassigned; (-)) [(−)-21b] please 5.09

---

target: nAChRs of rat forebrain tissue (Rattus norvegicus, UniProt P09483+P12390); details: mean of three to five independent measurements
readoutKind: log10(Ki) (log10 of the value in µM)
All values: log10 Ki [µM].

Solved cases (4 shown):
CCCCc1ccc(-c2ccc3n(c2=O)CC2CNCC3C2)cc1 (single isomer, unassigned; (-)) [(−)-21b]    1.32
COC(=O)[C@H]1C2CNCC(C2)c2cccc(=O)n21 (single isomer, unassigned; (-)) [(−)-22]    1.68
CCC(=O)[C@H]1C2CNCC(C2)c2cccc(=O)n21 (single isomer, unassigned; (-)) [(−)-23]    1.36
O=c1c(-c2ccc(F)cc2)ccc2n1CC1CNCC2C1 (single isomer, unassigned; (-)) [(−)-21a]    0.49

# ---- query molecule ----
Requested field: log10(Ki). Item: Cc1ccc(-c2ccc3n(c2=O)CC2CNCC3C2)s1 (single isomer, unassigned; (-)) [(−)-21c] 0.08

---

biological target: α2β2 nAChR (Rattus norvegicus, UniProt P12389+P12390); construct: expressed in transfected cells; test: Competition binding with [3H]epibatidine, membrane homogenates of stably transfected cells; conditions: primary screening; estimated from single concentration (10 μM) competition binding; read-out: Estimated Ki α2β2
readoutKind: potency estimated from few doses (µM)
Answer in µM, number only, no unit symbol.

O=c1ccccn1CC1CCN(Cc2ccccc2)CC1    26
O=c1ccccn1CC1CCCN(Cc2ccccc2)C1 (stereo not shown)    100
O=c1ccccn1CC1CCCNC1 (stereo not shown)    4.63

Find the measured potency estimated from few doses: item CN1CCCC(Cn2ccccc2=O)C1 (stereo not shown) , target or system α2β2 nAChR (Rattus norvegicus, UniProt P12389+P12390). 19
